Source of measurements: ChEMBL document CHEMBL1914388

molecular target: Steroid hormone receptor ERR1 (Homo sapiens); assay: Agonist activity at human ERRalpha ligand binding domain expressed in human 293FT cells coexpressing Gal4 DNA binding domain assessed as increased transcriptional activity at 10 uM after 24 hrs by dual luciferase reporter gene assay relative to control; assay type: cell-based
The source made the active and inactive calls. The calls are words filed in the database; no cut-off is given here.
Respond with a class label; see T = active, F = inactive

Study these solved cases before continuing.
>  <smilesCode>
CC(C)(C)c1ccn2c(=O)cc(-c3ccccc3)nc2c1

>  <group>
F

$$$$
>  <smilesCode>
CCc1ccn2c(=O)c(C)c(-c3ccccc3)nc2c1

>  <group>
F

$$$$
>  <smilesCode>
CCc1ccn2c(=O)c(CC)c(-c3ccccc3)nc2c1

>  <group>
F

$$$$
>  <smilesCode>
O=c1cc(-c2ccccc2)nc2cc(-c3ccccc3)ccn12

>  <group>
F

$$$$

Outcome? Cc1ccn2c(=O)cc(-c3ccccc3)nc2c1
T
